Can you tell me GI50 for the items I'm about to list?
Please make sure the unit comes right after the number.

stdin: Return GI50 measured with HCT-15 given this compound: Cc1cc2nc3c4ccccc4n(CCN(C)C)c3nc2cc1C [B220, reference compound]
stdout: 1770 nM

stdin: Return GI50 measured with HCT-15 given this compound: "COc1ccc2c(c1)c1nc3cc(C)c(C)cc3nc1n2CCN(C)C"
stdout: 410 nM

stdin: Return GI50 measured with HCT-15 given this compound: "Cc1cc2nc3c4cc(N)ccc4n(CCN(C)C)c3nc2cc1C"
stdout: 528 nM

stdin: Return GI50 measured with HCT-15 given this compound: "Cc1cc2nc3c4cc([N+](=O)[O-])ccc4n(CCN(C)C)c3nc2cc1C"
stdout: 349 nM

stdin: Return GI50 measured with HCT-15 given this compound: "Cc1cc2nc3c4cc(O)ccc4n(CCN(C)C)c3nc2cc1C"
stdout: 405 nM
